System: HPPD polypeptides
Assay: coupled HPPD activity assay: turnover and residual turnover in crude extracts
Format: biochemical, Pseudomonas fluorescens
Details: presence of 100 μM Cmpd. 1; high substrate concentration; changes in absorbance (OD) at 320 nm
property_name: Residual turnover
Please reply with the number alone, leaving off any unit.

Consider the molecule 56 (protein, mutant HPPD polypeptide) MADLYENPMGLMGFEFIEFASPTPGTLEPIFEIMGFTKVATHRSKNVHLYRQGEINLILNNEPNSIASYFAAEHGPSVCGMAFRVKDSQKAYNRALELGAQPIHIDTGPMELNLPAIKGIGGAPLYLIDRFGEGSSIYDIDFVYLEGVERNPVGAGLKVIDHLTHNVYRGRMVYWANFYEKLFNFREARYFDIKGEYTGLTSKAMSAPDGMIRIPLNEESSKGAGQIEEFLMQFNGEGIQHVAFLTDDLVKTWDALKKIGMRFMTAPADNYYEMLEGRLPDHGEPVDQLQARGILLDGSSVEGDKRLLLQIFSETLMGPVFFEFIQRKGDDGFGPHSFKVLFEQIERDQVRRGVLTAD and give its measured Residual turnover.
0.086

All figures here come from patent US11180770B2.
